- assay_name: ATG_GRE_CIS: Attagene CIS-FACTORIAL HepG2 Assay for human Glucocorticoid Response Elements (GRE) (AID 2282947)
- condition_description: HepG2 GRE cis-reporter, Attagene multiplex mRNA; actives raise or lower the signal
Calls of active or inactive are those of the source. The calls were made as follows: active = hit-call score of the fitted dose curve at least 0.9, where 1 is the maximum; inactive = score below 0.9.
Mark one answer only. Choices: active, inactive

Query block: Recorded call for `Brc1cc(Br)cc(Br)c1` ?
Result block: inactive

Query block: Look up the recorded call for CC(C)Cc1ccc(C(C)C(=O)O)cc1 (stereo not drawn) in this test.
Result block: inactive

Query block: Answer briefly: the call reported for `CC(=O)N(C)C` in this assay.
Result block: inactive

Query block: Given `CCO[Si](CCC#N)(OCC)OCC` , state the outcome it received in this test.
Result block: inactive

Query block: What did this assay record as the result for `Cc1cc(O)c2c(c1)C(=O)c1cc(O)cc(O)c1C2=O` ?
Result block: active

Query block: GET /call?item= `CCCCCCCCCCOC(=O)c1ccccc1C(=O)OCCCCCCCC` returns the recorded outcome of this test.
Result block: inactive

Query block: Status in this test for `CCC(=O)OCC=Cc1ccccc1` ?
Result block: inactive

Query block: Which outcome did this test record for the molecule `Cc1cc(O)c(C)c(C)c1O` ?
Result block: inactive

Query block: Given `c1coc(CNc2ncnc3nc[nH]c23)c1` , state the outcome it received in this test.
Result block: inactive

Query block: Recorded call for CCCC1CCOC(C)S1 (stereo not drawn) ?
Result block: inactive

Query block: Lab log entry: `CC(C)CCOC(=O)CC(C)C` — outcome as called in the assay?
Result block: inactive

Query block: Identify the outcome logged in this assay for the molecule shown: `Cc1ccncc1`
Result block: inactive

Query block: Which outcome was assigned to `NC(=O)c1cccnc1` in this test?
Result block: inactive

Query block: Call for entry `CCOC(=O)CC(C)C` :
Result block: inactive

Query block: Please state the recorded outcome for this molecule: `OC[C@H]1O[C@@H](O[C@H]2[C@H](O)[C@@H](O)[C@H](O)O[C@@H]2CO)[C@H](O)[C@@H](O)[C@H]1O`
Result block: inactive

Query block: Record lookup: outcome of this test for CC(O)COCC(C)O (stereo not drawn) ?
Result block: inactive

Query block: Please state the recorded outcome for this molecule: `CC/C(=C(\c1ccccc1)c1ccc(OCCN(C)C)cc1)c1ccccc1`
Result block: inactive

Query block: In this assay, the call recorded for CCCCOC(=O)C(C)OC(=O)CCC (stereo not drawn) was what?
Result block: inactive

Query block: Status in this test for `CC1=C(C=O)C(C)(C)CCC1` ?
Result block: inactive

Query block: Any idea what this test logged for CC(O)CN (stereo not drawn) ?
Result block: inactive

Query block: For `CC(C)OB(OC(C)C)OC(C)C` , what call appears in the results of this test?
Result block: inactive

Query block: Could you check what this test reported for `CCCCN(CCO)CCO` ?
Result block: inactive

Query block: Look up the recorded call for `C[C@H](CCC(=O)O)[C@H]1CC[C@H]2[C@@H]3CC[C@@H]4C[C@H](O)CC[C@]4(C)[C@H]3CC[C@]12C` in this test.
Result block: inactive

====

- assay_target: human RAR-related Orphan Receptor beta (RORb), RORB (gene 6096) (UniProt Q92753)
- Sequence (Q92753 whole entry, looked up): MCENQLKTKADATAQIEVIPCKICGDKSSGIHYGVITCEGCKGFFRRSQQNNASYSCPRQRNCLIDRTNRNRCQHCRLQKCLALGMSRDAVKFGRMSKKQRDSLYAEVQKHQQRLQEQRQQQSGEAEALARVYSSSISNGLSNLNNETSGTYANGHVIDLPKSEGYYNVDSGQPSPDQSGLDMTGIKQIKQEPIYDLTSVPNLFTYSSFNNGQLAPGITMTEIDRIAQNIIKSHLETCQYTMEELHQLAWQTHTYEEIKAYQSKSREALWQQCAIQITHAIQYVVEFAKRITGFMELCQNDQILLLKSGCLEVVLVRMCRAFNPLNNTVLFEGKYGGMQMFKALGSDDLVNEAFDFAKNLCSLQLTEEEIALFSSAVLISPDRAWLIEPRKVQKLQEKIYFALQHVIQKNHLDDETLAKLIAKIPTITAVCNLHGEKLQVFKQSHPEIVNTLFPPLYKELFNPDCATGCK
- assay_name: ATG_RORb_TRANS: Attagene TRANS-FACTORIAL HepG2 Assay for human RAR-related Orphan Receptor beta (RORb) (AID 2283010)
Results filed as inconclusive are left out. Calls of active or inactive are those of the source. How the source made its calls: active means hit-call score of the fitted dose curve at least 0.9, where 1 is the maximum; inconclusive means response in the unintended direction; inactive means score below 0.9.
readout: outcome

molecule_smiles	assay_target	result_value
C1=COCCC1	human RAR-related Orphan Receptor beta (RORb), RORB (gene 6096) (UniProt Q92753)	inactive
CC(=O)CCc1ccc(O)cc1	human RAR-related Orphan Receptor beta (RORb), RORB (gene 6096) (UniProt Q92753)	inactive
CCOc1ccc(NC(C)=O)cc1	human RAR-related Orphan Receptor beta (RORb), RORB (gene 6096) (UniProt Q92753)	inactive

====

- assay_name: ATG_EGR_CIS: Attagene CIS-FACTORIAL HepG2 Assay for human Early Growth Response 1 (EGR1) (AID 2282938)
- condition_description: HepG2 Attagene CIS-FACTORIAL EGR reporter mRNA; actives raise or lower the signal
The source made the active and inactive calls. How the source made its calls: active means hit-call score of the fitted dose curve at least 0.9, where 1 is the maximum; inactive means score below 0.9.
Hi there, use one of these labels in your reply, thanks! active, inactive

Query block: # lookup: test call for `CCC(=O)OC/C=C(\C)CCC=C(C)C`
Result block: inactive

Query block: Name the outcome recorded for `O=C1CCCCCCCCCCCC(=O)OCCO1` in the assay.
Result block: inactive

Query block: What was the test verdict on `N#CCCNCCC#N` ?
Result block: inactive

Query block: For this compound, state the assay outcome: `CC(=O)c1ccc(O)cc1`
Result block: inactive

Query block: Tell me the assay call for CCC(C)C1CCCCC1=O (stereo not given) please.
Result block: inactive

Query block: Dear all, I need the recorded test outcome for N#CCCCC(C#N)CCC#N (stereo not given) , thank you.
Result block: inactive

Query block: Test call for this compound, please: `CCC=C(C)C=O`
Result block: inactive

Query block: Record request — test call for `O=C1OCc2ccccc21`
Result block: inactive

Query block: Fill in: this test's call for `O=S(=O)(O)c1cc(S(=O)(=O)O)c2c(N=Nc3ccccc3)c(O)ccc2c1` is ___
Result block: inactive

Query block: Status in this test for `CC(C)Cc1ccccc1` ?
Result block: inactive

Query block: Returns: the outcome recorded for `CC(=O)CCc1ccc(O)cc1` in this assay.
Result block: inactive

Query block: Hello, I am checking results. What call was entered for CCCC(O)C(CC)CO (stereo not given) ?
Result block: inactive

Query block: Could you kindly confirm the outcome this assay logged for `CCCCCCOc1ccc(O)cc1` ?
Result block: inactive

Query block: I would be grateful if you could indicate the recorded call for CC1=CC(C)C(C=O)C(C)C1 (stereo not given) (tested in a mixture with another compound) .
Result block: inactive

Query block: Would you mind telling me which call this test gave `CCCCCCCCOC(=O)c1ccc(O)cc1` ?
Result block: inactive

Query block: Lab log entry: `CCCCCCCCCCCCOC(C)=O` — outcome as called in the assay?
Result block: inactive

Query block: Entry `CCC(CC)CO` : call = ?
Result block: inactive

Query block: Recorded call for `CCOC(=O)CC(C)C` ?
Result block: inactive

Query block: How was C=CC(C)(CCC=C(C)C)OC(=O)CC (stereo not given) classified in this test?
Result block: inactive

Query block: Answer briefly: the call reported for `CCCCCc1cccc(=O)o1` in this assay.
Result block: inactive

Query block: Status in this test for `O=S1(=O)CC(Cl)(Cl)C(Cl)(Cl)C1` ?
Result block: active

Query block: Which outcome was assigned to `Brc1cc(Br)cc(Br)c1` in this test?
Result block: inactive

Query block: What is the recorded call for this compound in the test? `CCCCN(CCCC)CCCCCCN(CCCC)CCCC`
Result block: inactive

Query block: Hello, I am checking results. What call was entered for `CCC(=O)OCC=Cc1ccccc1` ?
Result block: inactive

Query block: Name the outcome recorded for CC1=CC(O)CC(C)(C)C1 (stereo not given) in the assay.
Result block: inactive

Query block: Name the outcome recorded for `CCCCCCCCCOS(=O)(=O)O` in the assay.
Result block: inactive

Query block: For this compound, state the assay outcome: `C=C(C)C(=O)OCCN(C)C`
Result block: inactive

Query block: State the result this test recorded for `CCNC(=S)NCC` .
Result block: inactive

Query block: Assay outcome for `[Cu+]` : what was it?
Result block: inactive

Query block: Short answer needed: outcome of this test for `CC1=C(C=O)C(C)(C)CCC1` ?
Result block: inactive

Query block: In this assay, the call recorded for `CCCCCCCCCCCCCCCCCC(=O)OCCCCCCCCCCCCCC(C)C` was what?
Result block: inactive

Query block: I would be grateful if you could indicate the recorded call for `C=C(C)C(=O)OCCC[Si](OC)(OC)OC` .
Result block: inactive

Query block: Assay outcome for `CCCCOCCOCCOCCO` : what was it?
Result block: inactive

Query block: Dear colleague, could you share the recorded outcome for `Cc1ccccc1S` when you have a moment?
Result block: inactive

Query block: Recorded test call requested for `OC[C@H]1O[C@@H](O[C@H]2[C@H](O)[C@@H](O)[C@H](O)O[C@@H]2CO)[C@H](O)[C@@H](O)[C@H]1O`
Result block: inactive

Query block: Entry `NC(N)=NC(N)=NCCc1ccccc1` : call = ?
Result block: inactive

Query block: # outcome recorded in this test, key = CCCC1CCOC(C)S1 (stereo not given)
Result block: inactive

Query block: Tell me the assay call for `CC/C=C\C#N` please.
Result block: inactive

Query block: Returns: the outcome recorded for CC(=O)OC(C)(C)C1CC=C(C)CC1 (stereo not given) in this assay.
Result block: inactive

Query block: # outcome recorded in this test, key = `CC(=O)N(C)C`
Result block: inactive

Query block: In this assay, the call recorded for `CCOC(=O)COC(=O)c1ccccc1C(=O)OCC` was what?
Result block: inactive

Query block: Hey, what did the test say about `c1ccc(OCCOc2ccccc2)cc1` ?
Result block: inactive

Query block: State the result this test recorded for `c1coc(CNc2ncnc3nc[nH]c23)c1` .
Result block: inactive

Query block: In this assay, the call recorded for `Nc1cc([N+](=O)[O-])ccc1C(=O)O` was what?
Result block: inactive

Query block: Hey, what did the test say about `CNC(=C[N+](=O)[O-])NCCSCc1ccc(CN(C)C)o1` ?
Result block: inactive

Query block: Which result was noted for this compound in the test: `C[C@H](CCC(=O)O)[C@H]1CC[C@H]2[C@@H]3CC[C@@H]4C[C@H](O)CC[C@]4(C)[C@H]3CC[C@]12C`
Result block: active

Query block: // return assay outcome for `CCCCCCCCSCc1cc(C)c(O)c(CSCCCCCCCC)c1`
Result block: inactive

Query block: Please let me know the test result on file for CC12CCC(C1)C(C)(C)C2O (stereo not given) .
Result block: inactive

Query block: Answer briefly: the call reported for `CC1=CC[C@@H]2C[C@H]1C2(C)C` in this assay.
Result block: inactive

Query block: Test call, this compound: CCCCCC1C(=O)CCC1CC(=O)OC (stereo not given)
Result block: inactive

Query block: Which outcome was entered for the compound `CCCCOCCOCCO` in this test?
Result block: inactive

Query block: Hello, I am checking results. What call was entered for `Cc1cc(N)n(-c2ccccc2)n1` ?
Result block: inactive

Query block: Hi, do you know how `N=C1N=C(N)c2ccccc21` came out in this test?
Result block: inactive

Query block: Please let me know the test result on file for `O=C(O)c1ccccc1O` .
Result block: inactive

Query block: Could you please tell me the result logged for `CCCCCCOC(C)=O` in this assay?
Result block: inactive
